- experiment_summary: COS7 lysate on small-molecule microarray, probe aHis, 635 nm (AID 1123);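 also: z-score combines 667nm fluorescence intensity with signal-to-noise per printed compound spot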
- test_parameters: COS7 cell lysate, fluorescence, higher = more signal
Parameter threshold = 0.6. Response is yes (1) when composite z-score meets or exceeds it, else no (0).

stdin: Textbook exercise: given the entry C=CCNC(=O)[C@@H]1[C@H]2C(=O)O[C@H](c3ccccc3)[C@H](c3ccccc3)N2[C@H](c2ccc(O)cc2)[C@@]12C(=O)N(C(=O)OCCOC)c1ccc(C#CCNC(N)=O)cc12 , state whether its composite z-score is greater than or equal to 0.6.
stdout: yes (1)

stdin: Answer whether composite z-score of COc1cc2c(cc1O)C(c1cccs1)N(C)CC2 (stereo unspecified) is greater than or equal to 0.6.
stdout: no (0)

stdin: Identify whether the reported composite z-score of the following molecule is 0.6 or greater: COC(=O)[C@@]1(Cc2ccc(F)cc2)[C@H]2c3cc(C(=O)N4CCCC4)n(CCCNc4ncc(C(F)(F)F)cc4Cl)c3C[C@H]2CN1C(=O)c1ccccc1
stdout: yes (1)

stdin: Decide: composite z-score of O=C1C2C=CC(C(O)Cc3ccccc3)N(n3cnnc3)C2C(=O)N1Cc1ccccc1 (stereo unspecified) >= 0.6?
stdout: yes (1)

stdin: Form field: composite z-score at least 0.6? Entry: COCCOC(=O)N1C(=O)[C@@]2(c3ccccc31)[C@H](c1ccc(O)cc1)N1[C@H](c3ccccc3)[C@H](c3ccccc3)OC(=O)[C@H]1[C@@H]2C(=O)Nc1nc2ccccc2s1
stdout: yes (1)
